test: qHTS assay to identify small molecule antagonists of the estrogen receptor alpha (ER-alpha) signaling pathway using the BG1 cell line - cell viability counter screen (AID 743081); details: BG1Luc4E2 viability, CellTiter-Fluor, 22 h; series mostly up to 70.3 µM;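 note: compound given together with 17beta-estradiol as the ER stimulus; nearly all actives have a fitted effect of over 45% in size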
Records with an inconclusive call do not appear. Calls of active or inactive are those of the source. Calls come from the whole dose curve; as a rule, active = well fitted cell-killing curve with a large enough effect in the repeat runs; inconclusive = weak or mixed curves, or effect the other way; inactive = flat fitted curve, though single readings scatter.
Result category, one only: 1 for active, -1 for inactive

The following molecules have reported results that may help.
CCCCOc1cc(C(=O)OCCN(CC)CC)ccc1N: -1
N#Cc1cc2ccccc2c2ccccc12: -1
N[C@H]1C(O)O[C@H](CO)[C@H](O)[C@@H]1O (stereo partly drawn): -1

Exam item: Assay outcome for CCCCCCCCCCCCC(=O)O : what was it?
Marked response: -1

Exam item: Next: CC(C)CCCCCCOC(=O)c1ccc(C(=O)OCCCCCCC(C)C)c(C(=O)OCCCCCCC(C)C)c1
Marked response: -1

Exam item: Next: CC(C)CCCC(C)CCO (stereo not drawn)
Marked response: -1

Exam item: Next: CCCCCCCCCCCCCCCCCBr
Marked response: -1

Exam item: Next: N#CCc1cccc(C(F)(F)F)c1
Marked response: -1

Exam item: Next: O=C1CCCCCO1
Marked response: -1

Data origin: PubChem BioAssay (Tox21)
